The values you see were collected from patent US20230091225A1.

test system: LNCaP/AR cells; experiment: Inhibition of proliferation of LNCaP/AR prostate cancer cells (CCK-8); assay type: cell-based; settings: LNCaP/AR, 144 h
pIC50: −log10 of the molar value.
Quick reference: pIC50 of the listed items.

Examples with their reported pIC50 follow.
INSERT INTO results (compound, recordedresult) VALUES
  ('Cc1ncsc1-c1ccc([C@H](C)NC(=O)[C@@H]2C[C@@H](O)CN2C(=O)[C@@H](NC(=O)CN2CCC(CN3CCN(c4ccc(C(=O)NC5CC6(C)OC5(C)[C@@H]5C(=O)N(c7ccc(C#N)c(Cl)c7)C(=O)[C@@H]56)cn4)CC3)CC2)C(C)(C)C)cc1 (some centres unmarked) [Compound 18]', '> 7.00'),
  ('Cc1ncsc1-c1ccc([C@H](C)NC(=O)[C@@H]2C[C@@H](O)CN2C(=O)[C@@H](NC(=O)CCN2CC(CC#Cc3ccc4c(c3)CN([C@H]3C(C)(C)[C@H](Oc5ccc(C#N)c(Cl)c5)C3(C)C)C4=O)C2)C(C)(C)C)cc1 [Compound 44]', '6.30 to 7.00'),
  ('CC1(C)[C@H](Oc2ccc(C#N)c(Cl)c2)C(C)(C)[C@H]1N1Cc2cc(N3CCC(CN4CCN(c5ccc6c(c5)CN(C5CCC(=O)NC5=O)C6=O)CC4)CC3)ccc2C1=O (some centres unmarked) [Compound 248]', '6.30 to 7.00'),
  ('Cc1ncsc1-c1ccc([C@H](C)NC(=O)[C@@H]2C[C@@H](O)CN2C(=O)[C@@H](NC(=O)COCCOC(C)C#Cc2ccc3c(c2)CN([C@H]2C(C)(C)[C@H](Oc4ccc(C#N)c(Cl)c4)C2(C)C)C3=O)C(C)(C)C)cc1 (some centres unmarked) [Compound 37]', '> 7.00'),
  ('CC(=O)O[C@@H]1CC(C(=O)NC2(c3ccc(-c4scnc4C)cc3)CC2)N(C(=O)[C@@H](NC(=O)COCCCCCNc2ccc(C(=O)N[C@H]3C(C)(C)[C@H](Oc4ccc(C#N)c(Cl)c4)C3(C)C)cc2)C(C)(C)C)C1 (some centres unmarked) [Compound 46]', '> 7.00'),
  ('CC(=O)O[C@@H]1C[C@@H](C(=O)N[C@@H](C)c2ccc(-c3scnc3C)cc2)N(C(=O)[C@@H](NC(=O)COCC(C)OCC#Cc2ccc3c(c2)CN([C@H]2C(C)(C)[C@H](Oc4ccc(C#N)c(Cl)c4)C2(C)C)C3=O)C(C)(C)C)C1 (some centres unmarked) [Compound 14]', '> 7.00'),
  ('CC(=O)O[C@@H]1C[C@H](C(=O)N[C@H](C)c2ccc(-c3scnc3C)cc2)N(C(=O)[C@H](NC(=O)COCCCCCNc2ccc(C(=O)NC3C[C@]4(C)O[C@@]3(C)[C@@H]3C(=O)N(c5ccc(C#N)c(Cl)c5)C(=O)[C@@H]34)c(F)c2)C(C)(C)C)C1 (some centres unmarked) [Compound 19]', '> 7.00');

Here is the next item to consider.
# pIC50 (compound: CC(=O)O[C@@H]1C[C@@H](C(=O)N[C@@H](C)c2ccc(-c3scnc3C)cc2)N(C(=O)[C@@H](NC(=O)COCCOCC#Cc2ccc3c(c2)CN([C@H]2C(C)(C)[C@H](Oc4ccc(C#N)c(Cl)c4)C2(C)C)C3=O)C(C)(C)C)C1 [Compound 12] ) is > 7.00
